This section presents sequences with their documented PBM binding z-score values.
- Tested on: LXRb:RXRa (NR concentration 270 nM, RXRa partner concentration 90 nM)
- method: PBM binding z-score (relative to random genomic background probes); higher = stronger binding; sequences stand for … in GC…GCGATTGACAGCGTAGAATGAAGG

Examples with their reported PBM binding z-score follow.
• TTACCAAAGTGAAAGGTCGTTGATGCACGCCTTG = 1.57
• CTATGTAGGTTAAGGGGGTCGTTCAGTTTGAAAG = 5.37
• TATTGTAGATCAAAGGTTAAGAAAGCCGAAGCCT = 2.07
• CGAACTAGGTCAAAGGACTGTGAAAGGCGACGTA = 1.58
• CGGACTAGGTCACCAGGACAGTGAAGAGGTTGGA = 1.34
• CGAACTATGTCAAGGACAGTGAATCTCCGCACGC = -0.456
• ACATGTAGGTTAGGGTCATTCAGAAAGTAGGGAA = 4.58
• TAGCCTAGGTCACGGGCCAGTATACCACGCGAAC = 3.33
• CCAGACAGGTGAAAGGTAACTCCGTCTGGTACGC = 0.857
• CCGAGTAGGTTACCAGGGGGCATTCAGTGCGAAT = 6.85

Prompt: State its PBM binding z-score: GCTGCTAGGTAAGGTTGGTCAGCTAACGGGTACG
Completion: -0.746

Prompt: State its PBM binding z-score: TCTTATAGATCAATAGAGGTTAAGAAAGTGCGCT
Completion: 2

* * *

- Tested on: PPARa:RXRa (NR concentration 270 nM, RXRa partner concentration 90 nM)
- method: PBM binding z-score (relative to random genomic background probes); higher = stronger binding; sequences stand for … in GC…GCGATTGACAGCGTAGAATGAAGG
This section presents sequences with their documented PBM binding z-score values.
Output: the number by itself.

Examples with their reported PBM binding z-score follow.
• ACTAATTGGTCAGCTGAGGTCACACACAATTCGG = 4.06
• CTATGAAGGTTAAGGGGGTCATTCAGTTTGAAAG = 5.65
• TCTGCTATGTCAACGATGGTCAGCTAATCTGCTA = -0.269
• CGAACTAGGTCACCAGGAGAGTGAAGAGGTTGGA = 4.87

Prompt: State its PBM binding z-score: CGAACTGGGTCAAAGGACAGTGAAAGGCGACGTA
Completion: 5.23

Prompt: State its PBM binding z-score: ATCTCTAGGTTAAAGTTCAGTGAATCCCGAGGAT
Completion: 5.59

* * *

This section presents sequences with their documented PBM binding z-score values.
- Test system: LXRb homodimer (NR concentration 270 nM)
- method: PBM binding z-score (relative to random genomic background probes); higher = stronger binding; sequences stand for … in GC…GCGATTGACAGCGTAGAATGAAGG
Output: the number by itself.

Examples with their reported PBM binding z-score follow.
• GATACAGGGTCAACTAGAGGCCAGAGTATGGAAA = 0.877
• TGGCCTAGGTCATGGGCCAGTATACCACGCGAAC = -1.26
• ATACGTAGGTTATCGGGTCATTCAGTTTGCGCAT = 1.18
• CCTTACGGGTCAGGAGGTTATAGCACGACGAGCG = -0.12
• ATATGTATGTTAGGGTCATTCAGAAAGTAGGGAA = 1.46

Prompt: State its PBM binding z-score: CCTCGGAGGACACCAGGAGGTCAGAGCTGCCAGA
Completion: -0.792

Prompt: State its PBM binding z-score: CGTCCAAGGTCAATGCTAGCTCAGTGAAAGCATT
Completion: 0.696

Prompt: State its PBM binding z-score: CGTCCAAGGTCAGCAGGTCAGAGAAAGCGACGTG
Completion: -0.208

Prompt: State its PBM binding z-score: ATCTCTAGGTAACAAGGTCAGTGAAAGAGAGGAC
Completion: 1.16

Prompt: State its PBM binding z-score: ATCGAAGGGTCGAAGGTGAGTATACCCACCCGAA
Completion: -0.316

Prompt: State its PBM binding z-score: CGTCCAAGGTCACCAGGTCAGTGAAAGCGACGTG
Completion: 0.282

Prompt: State its PBM binding z-score: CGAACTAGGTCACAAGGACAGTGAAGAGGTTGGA
Completion: -0.115
